# study target: adenosine kinase (Homo sapiens)
# Sequence (P55263 whole entry, species assumed): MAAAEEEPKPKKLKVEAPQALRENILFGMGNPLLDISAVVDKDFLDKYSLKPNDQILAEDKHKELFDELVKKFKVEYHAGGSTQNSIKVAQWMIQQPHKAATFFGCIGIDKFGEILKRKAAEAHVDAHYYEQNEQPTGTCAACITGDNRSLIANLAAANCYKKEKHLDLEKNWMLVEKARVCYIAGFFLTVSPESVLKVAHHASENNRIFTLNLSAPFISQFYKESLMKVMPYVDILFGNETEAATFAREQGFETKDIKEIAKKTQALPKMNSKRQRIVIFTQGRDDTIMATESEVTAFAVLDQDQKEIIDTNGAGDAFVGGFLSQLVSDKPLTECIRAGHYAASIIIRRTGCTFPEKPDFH
# procedure summary: In vitro inhibition of adenosine kinase activity
# Assay type: biochemical
# condition label: Table 1, in vitro
measurement label: pIC50
Note: pIC50 values are expressed as the negative base-10 logarithm of concentration in M.

Nc1ncnc2c1c(I)cn2[C@@H]1C[C@H](N)[C@@H](O)[C@H]1O [drawing 14 (R4=H2N, R5=NH2, R6=I)]: 10.10
N[C@H]1C[C@@H](n2cc(I)c3c(Cl)ncnc32)[C@H](O)[C@@H]1O [drawing 14 (R4=H2N, R5=Cl, R6=I)]: 10.46

Request: Answer with reported pIC50 of O[C@@H]1[C@H](O)[C@@H](O)C[C@H]1n1cc(I)c2c(Nc3ccccc3)ncnc21 [drawing 13 (R5=NHPh, R6=I)]
Response: 7.00

Request: Answer with reported pIC50 of Nc1ncnc2c1c(C#Cc1ccccc1)cn2[C@@H]1C[C@H](O)[C@@H](O)[C@H]1O [drawing 13 (R5=NH2, R6=PhCC)]
Response: 6.64

The reported numbers originate from patent US5665721A.
